target: Human DNA topoisomerase 1 (Top1) (Homo sapiens, UniProt P11387 1-765); test: EMSA
Sequence (P11387 whole entry): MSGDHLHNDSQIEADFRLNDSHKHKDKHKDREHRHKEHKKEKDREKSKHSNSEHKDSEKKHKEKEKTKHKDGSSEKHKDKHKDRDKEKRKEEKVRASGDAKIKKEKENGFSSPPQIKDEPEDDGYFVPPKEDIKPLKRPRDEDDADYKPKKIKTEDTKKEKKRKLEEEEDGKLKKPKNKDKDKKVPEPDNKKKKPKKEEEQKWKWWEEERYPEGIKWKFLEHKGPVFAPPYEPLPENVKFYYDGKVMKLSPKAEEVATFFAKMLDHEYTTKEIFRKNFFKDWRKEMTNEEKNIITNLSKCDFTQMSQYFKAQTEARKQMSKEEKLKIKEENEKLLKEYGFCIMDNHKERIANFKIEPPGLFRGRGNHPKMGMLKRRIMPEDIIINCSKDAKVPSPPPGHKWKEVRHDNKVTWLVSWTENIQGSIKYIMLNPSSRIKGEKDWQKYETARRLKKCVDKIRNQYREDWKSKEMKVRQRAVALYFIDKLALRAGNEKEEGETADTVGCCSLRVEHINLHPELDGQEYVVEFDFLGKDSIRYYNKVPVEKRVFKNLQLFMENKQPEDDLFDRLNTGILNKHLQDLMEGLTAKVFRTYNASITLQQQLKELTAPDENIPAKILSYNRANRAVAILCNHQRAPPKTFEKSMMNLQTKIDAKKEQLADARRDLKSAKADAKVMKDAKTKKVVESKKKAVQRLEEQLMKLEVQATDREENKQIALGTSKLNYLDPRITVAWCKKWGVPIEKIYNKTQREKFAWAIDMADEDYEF
property_measured: binding result

MYC G4 in dsDNA (mixed) DNA 1: CCTGAAGCAGACAGCTAGTGAATTCGGGTGGGGAGGGTGGGGTACTTGCGTATAACTGTTCCATAGT DNA 2: ACTATGGAACAGTTATACGCAAGTATTTTTTTTTTTTTTTTTTTTTGAATTCACTAGCTGTCTGCTTCAGG = binds
PDGFRB G4 in dsDNA (mixed) DNA 1: CCTGAAGCAGACAGCTAGTGAATTCGGGGGGGCGGCGGGGTACTTGCGTATAACTGTTCCATAGT DNA 2: ACTATGGAACAGTTATACGCAAGTATTTTTTTTTTTTTTTTTTTTTGAATTCACTAGCTGTCTGCTTCAGG = binds
C9orf72 G4 in dsDNA (mixed) DNA 1: CCTGAAGCAGACAGCTAGTGAATTCGGGGCCGGGGCCGGGGCCGGGGTACTTGCGTATAACTGTTCCATAGT DNA 2: ACTATGGAACAGTTATACGCAAGTATTTTTTTTTTTTTTTTTTTTTGAATTCACTAGCTGTCTGCTTCAGG = binds
CSTB G4 in dsDNA (mixed) DNA 1: CCTGAAGCAGACAGCTAGTGAATTCGGGGCGGGGCGCGGGGCGGGGTACTTGCGTATAACTGTTCCATAGT DNA 2: ACTATGGAACAGTTATACGCAAGTATTTTTTTTTTTTTTTTTTTTTGAATTCACTAGCTGTCTGCTTCAGG = binds
